System: LNCaP-S14 cells
assay-explanation: MTT viability assay, LNCaP-S14
Type: cell-based, human
condition-notes: 72 h, Table 4, read-out: IC50 (concentration of 50% growth inhibition), LNCaP-S14
pIC50: −log10 of the molar value.
measurement-name: pIC50

CCC(=O)N(Cc1cccc(Cl)c1)c1ccc2[nH]c(C(C)(C)C)cc2c1    4.89
O=C(Nc1ccccc1)Nc1ccc(SCc2nc(OCC(F)(F)F)cc(OCC(F)(F)F)n2)cc1    5.34
COc1ccc(S(=O)(=O)N(Cc2ccc(Cl)cc2)Cc2ccc3cc[nH]c3c2)cc1    4.80
COc1ccc(S(=O)(=O)Nc2cccc3cc(C(=O)NCc4ccc(Cl)cc4)[nH]c23)cc1    4.83
COc1ccc(S(=O)(=O)Nc2ccc3[nH]c(C(C)(C)C)cc3c2)cc1    4.74

* * *

Tested on: p27 levels in LNCaP-S14 cells
assay-explanation: p27 immunofluorescence screening assay in LNCaP-S14 cells
condition-notes: IF assay, 16 hours, SMIP concentration 20
// accumulation of p27, fold-induction normalized to DMSO lookup, one value per entry
State just the number; it will be interpreted in fold.

# annotated cases, reported accumulation of p27, fold-induction normalized to DMSO shown
COc1ccc(S(=O)(=O)Nc2ccc3[nH]c(C(C)(C)C)cc3c2)cc1    2.74
COc1ccc(S(=O)(=O)N(Cc2ccc(Cl)cc2)Cc2ccc3cc[nH]c3c2)cc1    1.83
O=C(Nc1ccccc1)Nc1ccc(SCc2nc(OCC(F)(F)F)cc(OCC(F)(F)F)n2)cc1    3.30
COc1ccc(S(=O)(=O)Nc2cccc3cc(C(=O)NCc4ccc(Cl)cc4)[nH]c23)cc1    2.62
O=C(CSC1=NNC(c2ccccn2)S1)c1cccc(F)c1 (stereo not drawn)    0.92

The record that follows has no accumulation of p27, fold-induction normalized to DMSO shown yet.
Let me check: CCC(=O)N(Cc1cccc(Cl)c1)c1ccc2[nH]c(C(C)(C)C)cc2c1 , system p27 levels in LNCaP-S14 cells, measured accumulation of p27, fold-induction normalized to DMSO is 4.75
